test system: Escherichia coli TOP10; assay: shrunken log2 fold change of peptide-encoding DNA abundance (4.5 h post-induction vs induction); higher = less antimicrobial activity (less host growth inhibition); conditions: time post-induction: 4.5 h; library: site-saturation at positions 5, 18, 19, 20
Tick 1 if shrunken log2 fold change is 0.04 or greater. Tick -1 if shrunken log2 fold change is less than 0.04.

QUERY: Is shrunken log2 fold change at least 0.04? Consider RRIRMRPPRLPRPRPRPLRQPRP
RESULT: -1

----------
tested on: Escherichia coli TOP10; experiment: shrunken log2 fold change of peptide-encoding DNA abundance (4.5 h post-induction vs induction); higher = less antimicrobial activity (less host growth inhibition); settings: time post-induction: 4.5 h; library: site-saturation at positions 5, 18, 19, 20;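 note: peptides expressed intracellularly from a pBAD plasmid library in pooled LB shake-flask culture, induced with 0.3% L-arabinose, DNA abundance read by NGS, three biological replicates, DESeq2 with apeglm shrinkage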
Measured shrunken log2 fold change of individual entries
Lab note: record just the number, no unit beside it.

Here are 5 sequences together with their reported answers.
RRIRNRPPRLPRPRPRPNDYPRP    -0.365
RRIRIRPPRLPRPRPRPECAPRP    -0.0969
RRIRCRPPRLPRPRPRPNGEPRP    -0.0109
RRIRFRPPRLPRPRPRPACYPRP    -0.066
RRIRGRPPRLPRPRPRPDKFPRP    0.0879

QUERY: Could you tell me which shrunken log2 fold change is on file for RRIRNRPPRLPRPRPRPVGAPRP ?
RESULT: 0.0749

QUERY: Consider the sequence RRIRNRPPRLPRPRPRPFDAPRP and give its measured shrunken log2 fold change.
RESULT: -0.106

QUERY: Using the record for RRIRCRPPRLPRPRPRPQPMPRP , report its shrunken log2 fold change.
RESULT: -0.0366

QUERY: Need shrunken log2 fold change of RRIRERPPRLPRPRPRPDYMPRP , thanks.
RESULT: 0.0229

QUERY: Give its shrunken log2 fold change value. Item: RRIRTRPPRLPRPRPRPIYSPRP
RESULT: -0.571

QUERY: What value of shrunken log2 fold change has been reported for the following sequence? RRIRTRPPRLPRPRPRPDWLPRP
RESULT: 0.514

QUERY: # input sequence: RRIRVRPPRLPRPRPRPNHSPRP ; wanted: its shrunken log2 fold change
RESULT: -0.632

QUERY: Can you share its shrunken log2 fold change? I mean this sequence: RRIRNRPPRLPRPRPRPYFWPRP
RESULT: -0.0871

Data origin, for the record: the supplement of paper PMC9112550
